// provenance: patent US11691992B2

# System: T. cruzi Tulahuen strain C2C4 containing the β-galactosidase (Lac Z) gene in rat skeletal myoblasts (L-6 cells)
# testName: Trypanosoma cruzi C2C4 screening assay
# Assay type: cell-based
# conditionDetails: L6, in L-6 cells, 96 h, CPRG, read-out: SCYNEXIS IC50: I Org. Growth T. cruzi Tulahuen C2C4 Lac Z, 4 d
pIC50: −log10 of the molar value.
The entries below are paired with their reported pIC50.

Reference set (2 entries):
O=C(Nc1ccc2c(c1)B(O)OC2)c1cn(-c2ccccn2)nn1 :: > 7.22
O=C(Nc1ccc2c(c1)B(O)OC2)c1cn(-c2ccc(F)cc2)nn1 :: 7.00 to 7.22

Now consider the entry below.
Look up and state reported pIC50 for Cc1c(C(=O)Nc2ccc3c(c2)B(O)OC3)nnn1-c1ccccn1
> 7.22
